Reference for the values: patent US7943618B2

Entries and their melting point values follow.
OBSERVED PROPERTY: melting point

- MOLECULE: "CNC(=O)Nc1cc(-c2cccc(NC(=O)N3Cc4ccc(F)cc4C3)c2C)cn(C)c1=O [II-14]"
  OBSERVED PROPERTY: "melting point"
  MEASUREMENT: "262 to 263 °C"
- MOLECULE: "CCNC(=O)Nc1cc(-c2cccc(NC(=O)c3ccc(C(C)(C)C)cc3)c2C)nn(C)c1=O [Compound I-27]"
  OBSERVED PROPERTY: "melting point"
  MEASUREMENT: "278 to 279 °C"
- MOLECULE: "Cc1c(NC(=O)c2ccc(C(C)(C)C)cc2)cccc1-c1cc(Nc2ccnc(N3CCN(C)CC3)n2)c(=O)n(C)n1 [Compound I-11]"
  OBSERVED PROPERTY: "melting point"
  MEASUREMENT: "220 to 222 °C"

====

TGT: Btk enzyme (His-tagged, full-length) (Homo sapiens)
Construct: 5-10 nM Btk enzyme (His-tagged, full-length); His
ASSAY COMMENT: Bruton's Tyrosine Kinase (Btk) Inhibition Assay (33P filtration capture)
Assay type: biochemical
CONDITION DESCRIPTION: Bruton's tyrosine kinase Assay (Example 34); Table I pyridazinones; 100 μM ATP
Protocol: Bruton's Tyrosine Kinase (Btk) Inhibition Assay The assay is a capture of radioactive ^33P phosphorylated product through filtration. […] All bound, radiolabeled products are detected by scintillation counter. […] IC50 determinations are calculated from 10 data points per compound utilizing data produced from a standard 96-well plate assay template. […] Background was counted in the absence of peptide substrate. Total activity was determined in the presence of peptide substrate. […]
pIC50: −log10 of the molar value.
This section presents compounds with their documented pIC50 values.

- COMPOUND: "Cc1c(NC(=O)c2ccc(C(C)(C)C)cc2)cccc1-c1cc(Nc2ccc(C(=O)N3CCOCC3)cn2)c(=O)n(C)n1"
  pIC50: "> 8.00"
- COMPOUND: "Cc1c(NC(=O)c2ccc(C(C)(C)C)cc2)cccc1-c1cc(Nc2ccnc(OCC3CCNC3)n2)c(=O)n(C)n1 (stereo not drawn)"
  pIC50: 6.84
- COMPOUND: "Cn1nc(-c2cccc(NC(=O)c3ccc(C4CC4)cc3)c2CO)cc(Nc2ccc(C(=O)N3CCOCC3)cn2)c1=O"
  pIC50: "> 8.00"

====

TGT: Btk enzyme (His-tagged, full-length) (Homo sapiens, UniProt Q06187)
Construct: 5-10 nM Btk enzyme (His-tagged, full-length); His
Sequence (Q06187 whole entry): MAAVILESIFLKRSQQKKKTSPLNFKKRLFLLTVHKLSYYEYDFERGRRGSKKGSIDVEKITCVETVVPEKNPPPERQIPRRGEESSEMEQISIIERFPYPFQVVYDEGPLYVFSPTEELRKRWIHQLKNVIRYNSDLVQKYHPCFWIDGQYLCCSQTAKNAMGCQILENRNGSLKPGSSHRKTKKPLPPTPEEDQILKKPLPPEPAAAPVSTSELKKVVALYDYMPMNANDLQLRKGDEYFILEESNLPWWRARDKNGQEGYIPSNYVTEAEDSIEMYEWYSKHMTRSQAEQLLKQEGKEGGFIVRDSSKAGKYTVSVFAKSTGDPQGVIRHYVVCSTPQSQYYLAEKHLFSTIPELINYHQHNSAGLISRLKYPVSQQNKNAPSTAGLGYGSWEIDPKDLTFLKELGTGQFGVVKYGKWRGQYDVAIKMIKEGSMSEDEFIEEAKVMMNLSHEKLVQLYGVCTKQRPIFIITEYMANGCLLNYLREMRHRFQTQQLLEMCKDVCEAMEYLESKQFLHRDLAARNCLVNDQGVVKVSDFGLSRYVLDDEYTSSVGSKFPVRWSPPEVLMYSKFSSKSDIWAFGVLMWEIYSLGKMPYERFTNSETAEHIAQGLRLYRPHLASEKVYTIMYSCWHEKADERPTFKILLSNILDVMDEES
ASSAY COMMENT: Bruton's Tyrosine Kinase (Btk) Inhibition Assay (33P filtration capture)
Assay type: biochemical
CONDITION DESCRIPTION: Bruton's tyrosine kinase Assay (Example 34); Table II pyridinones; 100 μM ATP
OBSERVED PROPERTY: log10 of IC50 (log10 of the value in nM)

- MOLECULE: "CNC(=O)Nc1cc(-c2cccc(NC(=O)c3ccc(N(C)C)nc3)c2C)cn(C)c1=O [II-15]"
  TGT: "Btk enzyme (His-tagged, full-length) (Homo sapiens, UniProt Q06187)"
  log10 of IC50: 3.36
- MOLECULE: "Cn1cc(-c2cccc(NC(=O)c3ccc(C4CC4)cc3)c2CO)cc(Nc2cnccn2)c1=O [II-98]"
  TGT: "Btk enzyme (His-tagged, full-length) (Homo sapiens, UniProt Q06187)"
  log10 of IC50: 1.95
- MOLECULE: "C#Cc1ccc(C(=O)Nc2cccc(-c3cc(Nc4ccc(C(=O)N5CCOCC5)cn4)c(=O)n(C)c3)c2CO)cc1 [II-69]"
  TGT: "Btk enzyme (His-tagged, full-length) (Homo sapiens, UniProt Q06187)"
  log10 of IC50: 1.88
- MOLECULE: "Cn1cc(-c2cccc(NC(=O)c3ccc(C4CC4)cc3)c2CO)cc(Nc2cccnn2)c1=O [II-95]"
  TGT: "Btk enzyme (His-tagged, full-length) (Homo sapiens, UniProt Q06187)"
  log10 of IC50: 1.30
- MOLECULE: "CCn1nc(Nc2cc(-c3cccc(NC(=O)c4ccc(C5CC5)cc4)c3CO)cn(C)c2=O)ccc1=O [II-91]"
  TGT: "Btk enzyme (His-tagged, full-length) (Homo sapiens, UniProt Q06187)"
  log10 of IC50: 1.82

====

Recorded pIC50, one value per entry.
TGT: Btk enzyme (His-tagged, full-length) (Homo sapiens, UniProt Q06187)
Construct: 5-10 nM Btk enzyme (His-tagged, full-length); His
ASSAY COMMENT: Bruton's Tyrosine Kinase (Btk) Inhibition Assay (33P filtration capture)
Type: biochemical
CONDITION DESCRIPTION: Bruton's tyrosine kinase Assay (Example 34); Table I pyridazinones; 100 μM ATP
pIC50: −log10 of the molar value.
OBSERVED PROPERTY: pIC50

- MOL SMILES: "Cc1c(NC(=O)c2ccc(C(C)(C)C)cc2)cccc1-c1cc(Nc2ccccn2)c(=O)n(C)n1"
  TGT: "Btk enzyme (His-tagged, full-length) (Homo sapiens, UniProt Q06187)"
  MEASUREMENT: 7.03
- MOL SMILES: "Cn1nc(-c2cccc(CC(=O)N3Cc4ccccc4C3)c2)cc(Nc2ccc(C(=O)N3CCC(O)CC3)cn2)c1=O"
  TGT: "Btk enzyme (His-tagged, full-length) (Homo sapiens, UniProt Q06187)"
  MEASUREMENT: 6.81
- MOL SMILES: "Cc1c(NC(=O)c2ccc(C(C)(C)C)cc2)cccc1-c1cc(Nc2ccnc(N3CCOCC3)n2)c(=O)n(C)n1"
  TGT: "Btk enzyme (His-tagged, full-length) (Homo sapiens, UniProt Q06187)"
  MEASUREMENT: 6.60
- MOL SMILES: "Cc1c(NC(=O)c2ccc(C(C)(C)C)cc2)cccc1-c1cc(Nc2ccc(C(=O)N3CCOCC3)cc2)c(=O)n(C)n1"
  TGT: "Btk enzyme (His-tagged, full-length) (Homo sapiens, UniProt Q06187)"
  MEASUREMENT: 6.96
- MOL SMILES: "Cc1c(NC(=O)c2ccc(C(C)(C)O)cc2)cccc1-c1cc(Nc2ccc(C(=O)N3CCN(C)CC3)cn2)c(=O)n(C)n1"
  TGT: "Btk enzyme (His-tagged, full-length) (Homo sapiens, UniProt Q06187)"
  MEASUREMENT: 6.91
- MOL SMILES: "COc1cc(C(C)(C)C)ccc1C(=O)Nc1cccc(-c2cc(Nc3ccc(C(=O)N4CCOCC4)cn3)c(=O)n(C)n2)c1C"
  TGT: "Btk enzyme (His-tagged, full-length) (Homo sapiens, UniProt Q06187)"
  MEASUREMENT: 6.57
- MOL SMILES: "Cc1c(NC(=O)c2ccc(C(C)(C)O)cc2)cccc1-c1cc(Nc2ccc(C(=O)N3CCOCC3)cn2)c(=O)n(C)n1"
  TGT: "Btk enzyme (His-tagged, full-length) (Homo sapiens, UniProt Q06187)"
  MEASUREMENT: 6.43
- MOL SMILES: "Cn1nc(-c2cccc(CC(=O)NCCOC(C)(C)C)c2)cc(Nc2ccc(C(=O)N3CCOCC3)cn2)c1=O"
  TGT: "Btk enzyme (His-tagged, full-length) (Homo sapiens, UniProt Q06187)"
  MEASUREMENT: 6.09

====

TGT: Btk enzyme (His-tagged, full-length) (Homo sapiens, UniProt Q06187)
Construct: 5-10 nM Btk enzyme (His-tagged, full-length); His
ASSAY COMMENT: Bruton's Tyrosine Kinase (Btk) Inhibition Assay (33P filtration capture)
Assay type: biochemical
CONDITION DESCRIPTION: Bruton's tyrosine kinase Assay (Example 34); Table II pyridinones; 100 μM ATP
pIC50: −log10 of the molar value.
OBSERVED PROPERTY: pIC50

- COMPOUND: "CN(C)c1ccc(C(=O)Nc2cccc(-c3cc(Nc4ccc(C(=O)N5CCOCC5)cn4)c(=O)n(C)c3)c2CO)cc1"
  TGT: "Btk enzyme (His-tagged, full-length) (Homo sapiens, UniProt Q06187)"
  OBSERVED PROPERTY: "pIC50"
  RESULT COMPARATOR: ">"
  MEASUREMENT: 8.00
- COMPOUND: "Cc1c(NC(=O)c2ccc(C(C)(C)C)cc2)cccc1-c1cc(NC(=O)NCc2ccccc2)c(=O)n(C)c1"
  TGT: "Btk enzyme (His-tagged, full-length) (Homo sapiens, UniProt Q06187)"
  OBSERVED PROPERTY: "pIC50"
  RESULT COMPARATOR: "="
  MEASUREMENT: 5.91
- COMPOUND: "CCNC(=O)Nc1cc(-c2cccc(NC(=O)c3ccc(C4(F)CC4)cc3)c2CO)cn(C)c1=O"
  TGT: "Btk enzyme (His-tagged, full-length) (Homo sapiens, UniProt Q06187)"
  OBSERVED PROPERTY: "pIC50"
  RESULT COMPARATOR: "="
  MEASUREMENT: 7.82
- COMPOUND: "CCC(O)CNC(=O)Nc1cc(-c2cccc(NC(=O)c3ccc(C4CC4)cc3)c2CO)cn(C)c1=O (centres unmarked)"
  TGT: "Btk enzyme (His-tagged, full-length) (Homo sapiens, UniProt Q06187)"
  OBSERVED PROPERTY: "pIC50"
  RESULT COMPARATOR: "="
  MEASUREMENT: 7.34
- COMPOUND: "Cn1cc(-c2cccc(NC(=O)c3ccc(C4CC4)cc3)c2CO)cc(NC(=O)NCCc2cccnc2)c1=O"
  TGT: "Btk enzyme (His-tagged, full-length) (Homo sapiens, UniProt Q06187)"
  OBSERVED PROPERTY: "pIC50"
  RESULT COMPARATOR: "="
  MEASUREMENT: 6.80
- COMPOUND: "Cn1cc(-c2cccc(NC(=O)N3Cc4ccccc4C3)c2CO)cc(Nc2ccc(C(=O)N3CCOCC3)cn2)c1=O"
  TGT: "Btk enzyme (His-tagged, full-length) (Homo sapiens, UniProt Q06187)"
  OBSERVED PROPERTY: "pIC50"
  RESULT COMPARATOR: ">"
  MEASUREMENT: 8.00
- COMPOUND: "Cn1cc(-c2cccc(NC(=O)c3ccc(C4(Cl)CC4)cc3)c2CO)cc(Nc2ccc(C(=O)N3CCOCC3)cn2)c1=O"
  TGT: "Btk enzyme (His-tagged, full-length) (Homo sapiens, UniProt Q06187)"
  OBSERVED PROPERTY: "pIC50"
  RESULT COMPARATOR: ">"
  MEASUREMENT: 8.00
- COMPOUND: "Cn1cc(-c2cccc(NC(=O)c3ccc([Si](C)(C)C)cc3)c2CO)cc(Nc2ccc(C(=O)N3CCOCC3)cn2)c1=O"
  TGT: "Btk enzyme (His-tagged, full-length) (Homo sapiens, UniProt Q06187)"
  OBSERVED PROPERTY: "pIC50"
  RESULT COMPARATOR: "="
  MEASUREMENT: 7.40
- COMPOUND: "Cn1cc(-c2cccc(NC(=O)c3ccc(C(C)(C)C#N)cc3)c2CO)cc(Nc2ccc(C(=O)N3CCOCC3)cn2)c1=O"
  TGT: "Btk enzyme (His-tagged, full-length) (Homo sapiens, UniProt Q06187)"
  OBSERVED PROPERTY: "pIC50"
  RESULT COMPARATOR: ">"
  MEASUREMENT: 8.00
- COMPOUND: "Cc1c(NC(=O)c2ccc(C(C)(C)C)cc2)cccc1-c1cc(NC(=O)NCCO)c(=O)n(C)c1"
  TGT: "Btk enzyme (His-tagged, full-length) (Homo sapiens, UniProt Q06187)"
  OBSERVED PROPERTY: "pIC50"
  RESULT COMPARATOR: "="
  MEASUREMENT: 7.42
- COMPOUND: "Cn1cc(-c2cccc(NC(=O)c3ccc4c(c3)OCC4(C)C)c2CO)cc(Nc2ccc(C(=O)N3CCOCC3)cn2)c1=O"
  TGT: "Btk enzyme (His-tagged, full-length) (Homo sapiens, UniProt Q06187)"
  OBSERVED PROPERTY: "pIC50"
  RESULT COMPARATOR: ">"
  MEASUREMENT: 8.00
